- Target System: T1, MAGE-A4 peptide on HLA-A*02:01 (human)
- T1 peptide: KVLEHVVRV
- Procedure Text: multimer staining

Binder	binding result
PN41577 (TCR, V domains shown, stained with anti-mouse TCR constant region H57-597; full-length chains on transfected CHO cells; also called TCR No. 16) V domain 1: AQTVTQSQPEMSVQEAETVTLSCTYDTSESDYYLFWYKQPPSRQMILVIRQEAYKQQNATENRFSVNFQKAAKSFSLKISDSQLGDAAMYFCAYRSAPGNQFYFGTGTSLTVIP V domain 2: DVKVTQSSRYLVKRTGEKVFLECVQDMDHENMFWYRQDPGLGLRLIYFSYDVKMKEKGDIPEGYSVSREKKERFSLILESASTNQTSMYLCASSLWGTNEKLFFGSGTQLSVL	recognises
PN41654 (TCR, V domains shown, stained with anti-mouse TCR constant region H57-597; full-length chains on transfected CHO cells; also called TCR No. 22) V domain 1: GESVGLHLPTLSVQEGDNSIINCAYSNSASDYFIWYKQESGKGPQFIIDIRSNMDKRQGQRVTVLLNKTVKHLSLQIAATQPGDSAVYFCAEKRDNYGQNFVFGPGTRLSVLP V domain 2: DVKVTQSSRYLVKRTGEKVFLECVQDMDHENMFWYRQDPGLGLRLIYFSYDVKMKEKGDIPEGYSVSREKKERFSLILESASTNQTSMYLCASSLYSYGYTFGSGTRLTVV	recognises
PN41608 (TCR, V domains shown, stained with anti-mouse TCR constant region H57-597; full-length chains on transfected CHO cells; also called TCR No. 18) V domain 1: AQTVTQSQPEMSVQEAETVTLSCTYDTSESDYYLFWYKQPPSRQMILVIRQEAYKQQNATENRFSVNFQKAAKSFSLKISDSQLGDAAMYFCAYRSAPGNQFYFGTGTSLTVIP V domain 2: DVKVTQSSRYLVKRTGEKVFLECVQDMDHENMFWYRQDPGLGLRLIYFSYDVKMKEKGDIPEGYSVSREKKERFSLILESASTNQTSMYLCASSFWGWNTEAFFGQGTRLTVV	recognises
